# system-name: SMARCA2 (Homo sapiens, UniProt P51531)
# Sequence (P51531 whole entry): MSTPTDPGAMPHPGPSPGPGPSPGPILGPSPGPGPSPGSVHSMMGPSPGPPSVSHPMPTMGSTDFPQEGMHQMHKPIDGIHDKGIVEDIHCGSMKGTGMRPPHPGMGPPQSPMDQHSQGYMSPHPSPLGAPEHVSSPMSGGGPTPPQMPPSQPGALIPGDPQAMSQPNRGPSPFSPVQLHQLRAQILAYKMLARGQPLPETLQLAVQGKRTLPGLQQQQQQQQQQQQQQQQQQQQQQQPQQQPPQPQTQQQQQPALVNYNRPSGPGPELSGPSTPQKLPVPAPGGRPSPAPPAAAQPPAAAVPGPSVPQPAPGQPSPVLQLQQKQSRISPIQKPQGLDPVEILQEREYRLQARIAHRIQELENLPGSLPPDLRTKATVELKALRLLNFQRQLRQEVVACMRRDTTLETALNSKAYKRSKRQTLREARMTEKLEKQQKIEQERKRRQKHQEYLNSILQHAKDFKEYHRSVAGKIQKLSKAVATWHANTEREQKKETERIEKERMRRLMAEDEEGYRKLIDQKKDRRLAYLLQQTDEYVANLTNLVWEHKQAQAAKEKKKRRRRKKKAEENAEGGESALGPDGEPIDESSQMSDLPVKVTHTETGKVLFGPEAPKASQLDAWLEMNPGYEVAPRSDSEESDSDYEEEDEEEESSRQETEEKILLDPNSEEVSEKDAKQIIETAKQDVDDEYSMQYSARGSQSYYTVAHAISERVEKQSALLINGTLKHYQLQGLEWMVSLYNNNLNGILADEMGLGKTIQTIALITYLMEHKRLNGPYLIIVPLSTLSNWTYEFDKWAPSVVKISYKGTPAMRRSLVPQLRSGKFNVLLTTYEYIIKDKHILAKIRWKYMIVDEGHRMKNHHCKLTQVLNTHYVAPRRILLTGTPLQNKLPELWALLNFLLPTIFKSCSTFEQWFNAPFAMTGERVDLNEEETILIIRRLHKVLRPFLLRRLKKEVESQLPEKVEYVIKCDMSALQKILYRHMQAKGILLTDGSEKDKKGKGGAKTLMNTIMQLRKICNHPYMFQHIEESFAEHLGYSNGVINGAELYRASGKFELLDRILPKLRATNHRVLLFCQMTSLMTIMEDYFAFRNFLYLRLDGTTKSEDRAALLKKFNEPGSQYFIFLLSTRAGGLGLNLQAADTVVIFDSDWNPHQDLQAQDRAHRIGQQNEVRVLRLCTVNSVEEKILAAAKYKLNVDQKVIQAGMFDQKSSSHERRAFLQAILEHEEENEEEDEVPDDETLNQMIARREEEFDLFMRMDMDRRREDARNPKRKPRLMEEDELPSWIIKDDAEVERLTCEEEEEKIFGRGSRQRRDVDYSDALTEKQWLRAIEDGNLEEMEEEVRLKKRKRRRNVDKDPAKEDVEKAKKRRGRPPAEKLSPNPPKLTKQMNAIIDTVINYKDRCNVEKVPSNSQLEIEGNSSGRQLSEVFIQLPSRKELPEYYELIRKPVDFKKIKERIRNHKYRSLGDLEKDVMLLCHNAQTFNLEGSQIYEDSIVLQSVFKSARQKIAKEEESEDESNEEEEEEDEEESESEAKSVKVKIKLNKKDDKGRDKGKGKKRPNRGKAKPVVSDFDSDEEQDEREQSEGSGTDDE
# test-protocol: MSD SMARCA2 degradation in A549 cell line
# Assay type: cell-based
# measurement-setup: A549 cells
# Description: Example 10. MSD SMARCA2 Degradation in A549 Cell Line Cells were seeded into 96-well plates (A549 cells: 2×10^4 cells/well/100 ul media) and incubated overnight. […] The MSD plate was washed three times with 150 uL/well of TBST and 150 ul/well of 2× MSD reading buffer diluted from 4× (MSD, R92TC-2) with water was added. Lastly, the MSD instrument was read. […]
readout-label: SMARCA2 MSD A549 degradation 24 h: Average Dmax %

>  <compound>
C#Cc1ccc(CNC(=O)[C@@H]2C[C@@H](O)CN2C(=O)[C@@H](NC(=O)[C@H]2CCC3(CC2)C[C@H](N2CCC(c4ccc(N5CCN6c7cc(-c8ccccc8O)nnc7NC[C@H]6C5)nc4)CC2)C3)C(C)(C)C)cc1 (single isomer, unassigned) [I-156]

>  <system-name>
SMARCA2 (Homo sapiens, UniProt P51531)

>  <result-value>
A (A (>90% degradation))

$$$$
>  <compound>
C#Cc1ccc(CNC(=O)[C@@H]2C[C@@H](O)CN2C(=O)[C@@H](NC(=O)[C@H]2CCC3(CC2)C[C@H](N2CCN(c4cnc(N5CCN6c7cc(-c8ccccc8O)nnc7NC[C@H]6C5)nc4)CC2)C3)C(C)(C)CCO)c(Cl)c1 (single isomer, unassigned) [I-312]

>  <system-name>
SMARCA2 (Homo sapiens, UniProt P51531)

>  <result-value>
A (A (>90% degradation))

$$$$
>  <compound>
C#Cc1ccc(CNC(=O)[C@@H]2C[C@@H](O)CN2C(=O)[C@@H](NC(=O)[C@H]2CCC3(CC2)C[C@H](N2CCN(c4cnc(N5CCN6c7cc(-c8ccccc8O)nnc7NC[C@H]6C5)nc4)CC2)C3)C(C)(C)CCO)cc1 (single isomer, unassigned) [I-299]

>  <system-name>
SMARCA2 (Homo sapiens, UniProt P51531)

>  <result-value>
A (A (>90% degradation))

$$$$

---

# system-name: SMARCA4 (Homo sapiens, UniProt P51532)
# Construct: SMARCA2/SMARCA4 protein degradation selectivity in MV4-11 cells; endogenous in cells; host or cells: MV4-11
# Sequence (P51532 whole entry): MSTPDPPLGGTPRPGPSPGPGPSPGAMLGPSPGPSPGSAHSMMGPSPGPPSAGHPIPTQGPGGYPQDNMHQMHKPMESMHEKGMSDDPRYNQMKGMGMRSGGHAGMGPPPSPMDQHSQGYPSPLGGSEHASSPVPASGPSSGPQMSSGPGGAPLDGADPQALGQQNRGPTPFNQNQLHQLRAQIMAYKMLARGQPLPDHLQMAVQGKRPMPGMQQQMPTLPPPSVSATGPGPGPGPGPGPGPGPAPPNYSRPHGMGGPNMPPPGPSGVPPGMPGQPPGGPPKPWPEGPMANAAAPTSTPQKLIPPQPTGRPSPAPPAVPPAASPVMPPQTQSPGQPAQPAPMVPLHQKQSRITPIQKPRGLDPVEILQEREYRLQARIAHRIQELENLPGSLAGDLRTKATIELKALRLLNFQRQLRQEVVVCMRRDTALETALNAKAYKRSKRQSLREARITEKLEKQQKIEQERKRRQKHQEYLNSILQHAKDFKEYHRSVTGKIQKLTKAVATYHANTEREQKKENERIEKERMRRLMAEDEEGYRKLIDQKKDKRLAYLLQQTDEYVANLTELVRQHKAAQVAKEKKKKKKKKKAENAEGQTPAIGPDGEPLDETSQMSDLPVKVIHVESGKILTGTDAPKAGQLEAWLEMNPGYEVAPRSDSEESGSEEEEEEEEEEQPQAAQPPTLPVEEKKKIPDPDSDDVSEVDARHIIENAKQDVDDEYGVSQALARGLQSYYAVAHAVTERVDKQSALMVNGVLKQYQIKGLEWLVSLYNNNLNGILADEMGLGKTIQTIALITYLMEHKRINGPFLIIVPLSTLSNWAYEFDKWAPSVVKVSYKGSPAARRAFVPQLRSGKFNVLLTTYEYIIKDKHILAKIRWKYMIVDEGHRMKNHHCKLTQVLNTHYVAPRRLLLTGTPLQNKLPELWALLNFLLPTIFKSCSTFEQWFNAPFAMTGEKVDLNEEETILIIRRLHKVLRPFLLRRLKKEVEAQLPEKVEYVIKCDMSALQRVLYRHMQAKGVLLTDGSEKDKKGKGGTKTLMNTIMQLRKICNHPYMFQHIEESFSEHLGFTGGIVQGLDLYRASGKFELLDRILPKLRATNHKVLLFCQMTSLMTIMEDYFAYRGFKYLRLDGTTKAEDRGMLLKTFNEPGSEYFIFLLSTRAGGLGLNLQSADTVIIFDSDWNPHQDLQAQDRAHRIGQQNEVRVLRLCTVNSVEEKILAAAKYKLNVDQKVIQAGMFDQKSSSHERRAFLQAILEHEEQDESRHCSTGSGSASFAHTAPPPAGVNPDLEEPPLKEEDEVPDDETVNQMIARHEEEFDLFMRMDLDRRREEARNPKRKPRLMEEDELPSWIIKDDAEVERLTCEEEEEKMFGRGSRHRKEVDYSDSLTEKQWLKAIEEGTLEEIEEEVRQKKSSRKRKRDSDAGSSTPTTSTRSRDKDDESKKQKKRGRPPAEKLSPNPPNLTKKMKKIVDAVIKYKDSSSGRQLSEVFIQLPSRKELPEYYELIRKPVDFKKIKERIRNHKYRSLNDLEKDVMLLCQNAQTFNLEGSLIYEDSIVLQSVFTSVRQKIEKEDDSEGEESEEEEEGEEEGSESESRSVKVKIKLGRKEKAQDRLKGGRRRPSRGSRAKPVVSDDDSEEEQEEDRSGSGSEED
# test-protocol: SMARCA4 Western blot degradation in MV4-11 cells
# Format: cell-based
# measurement-setup: MV4-11 cells, 24 h; read-out: SMARCA4 MSD MV411 degradation 24 h: Mean external-Abs DC50
readout-label: DC50

>  <compound>
C#Cc1ccc(CNC(=O)[C@@H]2C[C@@H](O)CN2C(=O)[C@@H](NC(=O)[C@H]2CCC3(CC2)C[C@H](N2CCC(c4cnc(N5CCN6c7cc(-c8cccc(F)c8O)nnc7NC[C@H]6C5)nc4)CC2)C3)C(C)(C)C)cc1 (single isomer, unassigned)

>  <result-value>
> 0.1 µM

$$$$
>  <compound>
C#Cc1ccc(CNC(=O)[C@@H]2C[C@@H](O)CN2C(=O)[C@@H](NC(=O)N2CCN(C[C@H]3CC[C@@H](N4CCC(N5CCc6[nH]c7nnc(-c8ccccc8O)cc7c6[C@H]5C)CC4)CC3)CC2)C(C)(C)C)cc1

>  <result-value>
> 0.1 µM

$$$$
>  <compound>
Cc1ncsc1-c1ccc(CNC(=O)[C@@H]2C[C@@H](O)CN2C(=O)[C@@H](NC(=O)C2(F)CC2)C(C)(C)C)c(OCCCCN2CCN(c3cnc(N4CCN5c6cc(-c7ccccc7O)nnc6NC[C@H]5C4)nc3)CC2)c1 (single isomer, unassigned)

>  <result-value>
0.001 to 0.01 µM

$$$$
>  <compound>
C#Cc1ccc([C@H](C)NC(=O)[C@@H]2C[C@@H](O)CN2C(=O)[C@H](c2cc(OCCN3CCC(N4CCC(N5CCC(CN6CCN7c8cc(-c9ccccc9O)nnc8NC[C@H]7C6)CC5)CC4)CC3)no2)C(C)C)cc1 (single isomer, unassigned)

>  <result-value>
0.01 to 0.1 µM

$$$$
>  <compound>
C#Cc1ccc(CNC(=O)[C@@H]2C[C@@H](O)CN2C(=O)[C@@H](NC(=O)N2CC3(CC(N4CCN([C@H]5CC[C@@H](N6CCc7[nH]c8nnc(-c9ccccc9O)cc8c7[C@H]6C)CC5)CC4)C3)C2)C(C)(C)C)cc1

>  <result-value>
> 0.1 µM

$$$$
>  <compound>
C#Cc1ccc(CNC(=O)[C@@H]2C[C@@H](O)CN2C(=O)[C@@H](NC(=O)N2CC3(CC(N4CCC(c5cnc(N6CCc7[nH]c8nnc(-c9ccccc9O)cc8c7[C@H]6C)nc5)CC4)C3)C2)C(C)(C)C)cc1Cl

>  <result-value>
> 0.1 µM

$$$$
>  <compound>
Cc1ncsc1-c1ccc(CNC(=O)[C@@H]2C[C@@H](O)CN2C(=O)C(c2cc(OCCCN3CCC(c4cnc(N5CCN6c7cc(-c8ccccc8O)nnc7NCC6C5)nc4)CC3)no2)C(C)C)cc1 (stereo in doubt)

>  <result-value>
0.001 to 0.01 µM

$$$$
>  <compound>
C#Cc1ccc([C@H](C)NC(=O)[C@@H]2C[C@@H](O)CN2C(=O)[C@H](c2cc(OCCN3CCN4c5cc(-c6ccccc6O)nnc5NC[C@H]4C3)no2)C(C)C)cc1 (single isomer, unassigned)

>  <result-value>
> 0.1 µM

$$$$

Cited source for all entries: patent US20250170248A1
